Each entry below lists one item and its recorded Population Healthy Nuclei (%) value.
# System: HEK-293T
# Test Name: Multiplex assay against HEK293T
# Assay type: toxicity, cell-based
# Settings: human, 24 h, 1 µM, compound concentration 1 uM, replicate 2
Readout Kind: Population Healthy Nuclei (%)

INSERT INTO results (molecule, unit_name, result) VALUES
  ('O=C(CCCc1ccccc1)Nc1nc2ccccc2c(=O)s1', '%', 78),
  ('CCCCCC(O)/C=C/[C@H]1C(=O)CC(O)C1C/C=C\CCCC(=O)O (stereo partly specified)', '%', 84),
  ('CCc1cc2cc(NS(=O)(=O)c3ccc(C#N)cc3)ccc2n(CC)c1=O', '%', 84),
  ('CC[C@@H](C)Nc1nc(C)nc2c(-c3ccc(OC)nc3C)c(C)nn12', '%', 76),
  ('CN(C)C(=O)Cn1cc(-c2ccc(-c3cncc4ccccc34)cc2)cn1', '%', 82),
  ('C[C@H](N)COC(=O)[C@@H](CCCCN)NC(=O)Cc1c(-c2ccc3ccccc3c2)[nH]c2c1ccc1ccccc12', '%', 80),
  ('NCCc1cn(S(=O)(=O)c2c(Cl)nc3sccn23)c2ccccc12.O=C(O)C(=O)O', '%', 78),
  ('O=C1[C@H](Cc2ccc(O)cc2)N2C(=O)CCN(C(=O)NCc3ccccc3)[C@H]2CN1Cc1cccc2ccccc12', '%', 77),
  ('Cc1cnc(-c2cc(N3CCN(C(=O)CCS(C)(=O)=O)CC3)ncc2Cl)c(C)c1', '%', 83),
  ('CC(C)c1noc(N2CCC(COc3ccc(-c4ccc(S(C)(=O)=O)cc4)nc3)CC2)n1', '%', 82),
  ('N#Cc1cc(F)cc(-c2nc(-c3ccc(F)cn3)no2)c1', '%', 82);
